EC50 reference
System: Diplodia mutila
Method Description: Fungicidal activity against Diplodia mutila Q assessed as conidial germination inhibition after 48 hr
Format: functional, organism-based
Setup Conditions: pooled result: one value given for 3 cell lines, strains, targets or settings
Numeric answer plus unit only.

Answered examples (2):
> print(dat)
                                   molecule  endpoint       result
1  CC(C)NC(=O)N1CC(=O)N(c2cc(Cl)cc(Cl)c2)C1=O [IPRODIONE]      EC50  0.03 mgAi/L
2  N#Cc1c(Cl)c(Cl)c(Cl)c(C#N)c1Cl [CHLOROTHALONIL]      EC50  1.35 mgAi/L

Req: Using the record for OC(c1ccc(Cl)cc1)(c1cncnc1)c1ccccc1Cl (stereo unspecified) [FENARIMOL] , report its EC50.
Resp: 0.48 mgAi/L

Req: Using the record for O=CNC(N1CCN(C(NC=O)C(Cl)(Cl)Cl)CC1)C(Cl)(Cl)Cl (stereo unspecified) [TRIFORINE] , report its EC50.
Resp: 49.59 mgAi/L

Req: Using the record for COCC(=O)N(c1c(C)cccc1C)C(C)C(=O)OC (stereo unspecified) [METALAXYL] , report its EC50.
Resp: 45.72 mgAi/L

Req: Using the record for CC(C)(C)C(O)(CCc1ccc(Cl)cc1)Cn1cncn1 (stereo unspecified) [TEBUCONAZOLE] , report its EC50.
Resp: 0.6 mgAi/L

Req: Using the record for CCCN(CCOc1c(Cl)cc(Cl)cc1Cl)C(=O)n1ccnc1 [PROCHLORAZ] , report its EC50.
Resp: 22.97 mgAi/L
